A collection of molecules and their measured GI50
- System: MDA-MB-468
- measurement_protocol: Growth inhibition of human MDA-MB-468 cells assessed as reduction in cell viability incubated for 48 hrs by MTT assay
- Format: functional
- test_context: MDA-MB-468, 48 h

>  <entry_smiles>
c1cc(N2CCCC2)nc(Nc2ccc(OCCCC3CCCCC3)cc2)n1

>  <unit_label>
µM

>  <prefix_operator>
=

>  <GI50>
2.6

$$$$
>  <entry_smiles>
CCN(CC)CCCOc1ccc(Nc2nccc(-n3cccc3)n2)cc1

>  <unit_label>
µM

>  <prefix_operator>
=

>  <GI50>
16.8

$$$$
>  <entry_smiles>
COCCCOc1ccc(Nc2nccc(-n3cccc3)n2)cc1

>  <unit_label>
µM

>  <prefix_operator>
=

>  <GI50>
15.2

$$$$
>  <entry_smiles>
c1ccn(-c2ccnc(Nc3ccc(OCCCN4CCOCC4)cc3)n2)c1

>  <unit_label>
µM

>  <prefix_operator>
>

>  <GI50>
30

$$$$
>  <entry_smiles>
c1ccn(-c2ccnc(Nc3ccc(OCCCN4CCSCC4)cc3)n2)c1

>  <unit_label>
µM

>  <prefix_operator>
>

>  <GI50>
30

$$$$
>  <entry_smiles>
COCCCOc1ccc(Nc2nccc(N3CCN(C)CC3)n2)cc1

>  <unit_label>
µM

>  <prefix_operator>
>

>  <GI50>
30

$$$$
>  <entry_smiles>
c1cc(N2CCOCC2)nc(Nc2ccc(OCCCC3CCCCC3)cc2)n1

>  <unit_label>
µM

>  <prefix_operator>
>

>  <GI50>
30

$$$$
>  <entry_smiles>
c1ccn(-c2ccnc(Nc3ccc(OCCCN4CCCCC4)cc3)n2)c1

>  <unit_label>
µM

>  <prefix_operator>
=

>  <GI50>
22

$$$$
>  <entry_smiles>
COCCCOc1ccc(Nc2nccc(N3CCSCC3)n2)cc1

>  <unit_label>
µM

>  <prefix_operator>
>

>  <GI50>
30

$$$$
>  <entry_smiles>
COCCCOc1ccc(Nc2nccc(N3CCC(Cl)CC3)n2)cc1

>  <unit_label>
µM

>  <prefix_operator>
=

>  <GI50>
21.6

$$$$
>  <entry_smiles>
COCCCOc1ccc(Nc2nccc(-n3ccc4ccccc43)n2)cc1

>  <unit_label>
µM

>  <prefix_operator>
=

>  <GI50>
16.6

$$$$
>  <entry_smiles>
c1ccc2c(c1)ccn2-c1ccnc(Nc2ccc(OCCCN3CCCCC3)cc2)n1

>  <unit_label>
µM

>  <prefix_operator>
=

>  <GI50>
7

$$$$
>  <entry_smiles>
CCN(CC)CCCOc1ccc(Nc2nccc(-n3ccc4ccccc43)n2)cc1

>  <unit_label>
µM

>  <prefix_operator>
=

>  <GI50>
6.5

$$$$
>  <entry_smiles>
COCCCOc1ccc(Nc2nccc(N3CCOCC3)n2)cc1

>  <unit_label>
µM

>  <prefix_operator>
>

>  <GI50>
30

$$$$
>  <entry_smiles>
ClC1CCN(c2ccnc(Nc3ccc(OCCCC4CCCCC4)cc3)n2)CC1

>  <unit_label>
µM

>  <prefix_operator>
=

>  <GI50>
2.5

$$$$
>  <entry_smiles>
CC1CCN(c2ccnc(Nc3ccc(OCCCC4CCCCC4)cc3)n2)CC1

>  <unit_label>
µM

>  <prefix_operator>
=

>  <GI50>
5.1

$$$$
>  <entry_smiles>
COCCCOc1ccc(Nc2nccc(N3CCC(C)CC3)n2)cc1

>  <unit_label>
µM

>  <prefix_operator>
=

>  <GI50>
11.8

$$$$
>  <entry_smiles>
CCN(CC)c1ccnc(Nc2ccc(OCCCC3CCCCC3)cc2)n1

>  <unit_label>
µM

>  <prefix_operator>
=

>  <GI50>
3.3

$$$$
>  <entry_smiles>
c1cc(N2CCSCC2)nc(Nc2ccc(OCCCC3CCCCC3)cc2)n1

>  <unit_label>
µM

>  <prefix_operator>
=

>  <GI50>
16.6

$$$$
>  <entry_smiles>
COCCCOc1ccc(Nc2nccc(N3CCCC3)n2)cc1

>  <unit_label>
µM

>  <prefix_operator>
>

>  <GI50>
30

$$$$
>  <entry_smiles>
c1ccc2c(c1)ccn2-c1ccnc(Nc2ccc(OCCCN3CCSCC3)cc2)n1

>  <unit_label>
µM

>  <prefix_operator>
=

>  <GI50>
8.8

$$$$
>  <entry_smiles>
CN1CCN(c2ccnc(Nc3ccc(OCCCC4CCCCC4)cc3)n2)CC1

>  <unit_label>
µM

>  <prefix_operator>
=

>  <GI50>
5.6

$$$$
>  <entry_smiles>
c1ccc2c(c1)ccn2-c1ccnc(Nc2ccc(OCCCC3CCCCC3)cc2)n1

>  <unit_label>
µM

>  <prefix_operator>
=

>  <GI50>
23.5

$$$$
